Attribution: the supplement of paper PMC10567573

B1: ZBTB22 (parent)
chain: AVLAASSPYFHDQVLLKGMTSISL

# Variants of: B1
# procedure-details: protein stability index of a GFP-peptide fusion (GPS, HEK-293T) (PSI 1-6); higher = more stable;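 further: lentivirally expressed fusions sorted by FACS into six bins by GFP to DsRed ratio, PSI derived from sequencing read proportions per bin multiplied by bin number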
# measurement-conditions: c terminus: a fixed tail appended

mutant-label: L24R
protein stability index: 1.84
--
mutant-label: P8F
protein stability index: 2.55
--
mutant-label: V2H
protein stability index: 2.52
--
mutant-label: S23F
protein stability index: 4.12
--
mutant-label: S6W
protein stability index: 3.82
--
mutant-label: Y9V
protein stability index: 2.54
--
mutant-label: I22E
protein stability index: 4.43
--
mutant-label: P8H
protein stability index: 2.88
--
mutant-label: P8G
protein stability index: 3.22
--
mutant-label: A5T
protein stability index: 3.75
--
mutant-label: A4Y
protein stability index: 2
